Data credit: ChEMBL document CHEMBL1128787

molecular target: Cathepsin B (Homo sapiens)
Recorded Endpoint: Ki
Write the figure, then the unit, nothing else.

Reported Ki for O=C(N[C@@H](Cc1ccccc1)[C@H]1CO1)OCc1ccccc1 : what is it? 367 µM
